Source listed as patent US20250027068.

system_under_test: pooled human IgG
readout: Enzyme Activity Endpoint Assay (purified): scIgG (ng/µL)
Could you give me the number in ng/µL? Just the number is fine.

{"protein": "PRT-563 (protein) MANQEIRYSEATPSHITSVWTKGVTPPTQFIQNEDVLHAPYIANQGWYDITKTFNGKDDLLCGAATAGNMLHWWFDQNKTQIENYLKKHPEKQKINFNGEQMFDVKEAIDTKDSQTDSALFSYFKDKAFPYLSTKHLGVFPDHVIDMFINGYRLSLTNHGPTPVKRQTKDPRGGIFDAVFTRGDQSKLLTARHDFKEKTLNEISQLIKQELTEGKALGLSHTYANVRINHVINLWGADFNAEGNLEAIYVTDSDSNASIGMKKYYVGVNAAGKVAISAKEIEGDNIGAQVLGLFTLSTGQDIWQQTNLEHHHHHH", "numeric_readout": 0}
{"protein": "PRT-249 (protein) MVTSVWTKGVTPPTNFTYGEDVLHAPYVANQGWYDITKTFNGKDDLLCGAATAGNMLHWWFDQNKEQIENYLKKHPEKQKINFNGEQMFDVKEAIDTKDSQLDSKLFDYFKEKAFPNLSTKHLGVFPDHVIDMFINGYRLSLLNHGPTPVKRGSKDPRGGIFDAVFTRGDQSKLLTNRHDFKEKTLKEISDLIKQELTEGKALGISHTYANVRINHVINLWGADFDAEGNLEAIYVTDSDSNPSIGMKKYFVGVNSSGKVAISAKEIEEDNIGAQVLGLFTLSTGQDIWNQTN", "numeric_readout": 0}

Attention now shifts to the item below.
The recorded Enzyme Activity Endpoint Assay (purified): scIgG for PRT-329 (protein) MTITSVWTKGVTPPTPEDFRENNEDVLHAPYVANQGWYDITKTFDGKDNLLCGAATAGNMLHWWFDQNKEEIERYLKKHPEKQKIIFNNQELFDVKAAIDTKDSQTNSKLFNYFRDKAFPGLSARQLGVFPDLVLDMFINGYYLNLGKTQSTDVNRPYQDKDKRGGIFDAVFTRGVQTTLLTARHDLKNKGLNEISDLIKQELTEGKALALSHTYANVRINHVINLWGADFDAEGNLIAIYVTDSDANASIGMKKYFVGRNANGKVAISAKKIEGDNIGAQVLGLFTLSLGQDIWQKLS is 0
